ASSAYED TARGET: human μ opiate receptor (Homo sapiens)
Construct: purchased PerkinElmer Life Sciences, Zaventem, Belgium RB-HOM; host or cells: CHO-K1 cells (membrane preparation)
Sequence (P35372 whole entry): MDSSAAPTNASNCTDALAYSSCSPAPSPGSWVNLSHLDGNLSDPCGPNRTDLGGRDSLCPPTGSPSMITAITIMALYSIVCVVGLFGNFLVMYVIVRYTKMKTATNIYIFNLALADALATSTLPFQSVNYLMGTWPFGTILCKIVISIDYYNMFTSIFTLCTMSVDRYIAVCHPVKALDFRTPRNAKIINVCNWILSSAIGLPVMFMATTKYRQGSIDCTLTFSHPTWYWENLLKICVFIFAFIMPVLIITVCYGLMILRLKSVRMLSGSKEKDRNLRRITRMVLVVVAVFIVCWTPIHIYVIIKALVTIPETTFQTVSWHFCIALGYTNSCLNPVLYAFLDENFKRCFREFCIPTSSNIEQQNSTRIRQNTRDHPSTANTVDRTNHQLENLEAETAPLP
TEST DETAILS: Affinity for the human μ opiate receptor ([3H]-naloxone displacement, CHO-K1 receptor membrane preparation, SPA)
Format: binding
ASSAY CONDITIONS: 1.5 h, Table 3, to be read in the same way as Table 1; test concentration 1 μM; read-out: μ
Experimental: Binding data of the compounds on the μ opioid receptor and data on the inhibition of reuptake of serotonin (5-HT) are given in Table 1. The data for the μ receptor were measured at a test concentration of 1 μM, and those for the serotonin reuptake at 10 μM. The values are stated in % inhibition. […] The receptor affinity for the human p opiate receptor is determined in a homogeneous set-up in microtitre plates. […]
Answer NO if inhibition at 1 µM is under 20%, and YES if it is 20% or more.

Identify whether the reported inhibition at 1 µM of the following molecule is 20% or greater: CN(CCOCC(=O)NCC1CCC(C(CCc2ccccc2)N2CCCC2)CC1)S(=O)(=O)c1ccc(Cl)cc1Cl (stereo not shown)
YES

Now try COc1cc(C)c(S(=O)(=O)N(C)CCOCC(=O)NC2CCC(C(CCc3ccccc3)N3CCCCC3)CC2)c(C)c1 (stereo not shown) .
YES

Now try O=C(COCC1CCCN(S(=O)(=O)c2c(Cl)cc(Cl)cc2Cl)C1)NC1CCC(C(c2ccccc2)N2CCCC2)CC1 (stereo not shown) .
YES

Now try CN(CCOCC(=O)NC1CCC(C(c2ccccc2)N2CCCC2)CC1)S(=O)(=O)c1c(Cl)cc(C(F)(F)F)cc1Cl (stereo not shown) .
YES

Now try COc1cc(C)c(S(=O)(=O)N(C)CCOCC(=O)N2CCC(C(c3ccc(F)cc3)N3CCN(C)CC3)CC2)c(C)c1 (stereo not shown) .
NO

Now try CN1CCN(C(c2cccc(F)c2)C2CCN(C(=O)COCC3CCc4ccccc4N3S(=O)(=O)c3ccc(Cl)c(Cl)c3)CC2)CC1 (stereo not shown) .
NO

Now try COc1cc(C)c(S(=O)(=O)N(C)CCOCC(=O)N2CCC(C(CCc3ccccc3)N3CCN(C)CC3)CC2)c(C)c1 (stereo not shown) .
YES

---

ASSAYED TARGET: serotonin (5-HT) reuptake (Rattus norvegicus, UniProt P31652)
Construct: synaptosomes are freshly isolated from areas of the rat brain; from tissue; host or cells: rat brain synaptosomes (P2 fraction)
Sequence (P31652 whole entry): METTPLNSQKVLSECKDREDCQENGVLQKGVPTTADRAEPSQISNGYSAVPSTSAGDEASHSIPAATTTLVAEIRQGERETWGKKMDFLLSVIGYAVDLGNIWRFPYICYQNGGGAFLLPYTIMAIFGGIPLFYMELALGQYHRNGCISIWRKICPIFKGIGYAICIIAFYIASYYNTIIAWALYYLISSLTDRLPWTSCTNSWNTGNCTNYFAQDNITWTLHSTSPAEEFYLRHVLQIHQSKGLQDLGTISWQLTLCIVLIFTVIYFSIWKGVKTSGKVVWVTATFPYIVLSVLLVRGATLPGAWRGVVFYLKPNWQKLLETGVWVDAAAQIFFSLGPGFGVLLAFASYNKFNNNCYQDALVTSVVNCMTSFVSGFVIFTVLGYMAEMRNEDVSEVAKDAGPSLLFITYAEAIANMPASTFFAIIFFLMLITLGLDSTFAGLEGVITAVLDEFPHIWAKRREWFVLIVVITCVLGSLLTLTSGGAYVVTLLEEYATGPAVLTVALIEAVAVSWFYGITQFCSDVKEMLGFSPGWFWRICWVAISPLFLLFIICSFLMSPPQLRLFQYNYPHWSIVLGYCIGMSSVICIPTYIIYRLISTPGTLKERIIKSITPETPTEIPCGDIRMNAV
TEST DETAILS: Inhibition of serotonin (5HT) reuptake in synaptosomes from rat brain
Format: biochemical
ASSAY CONDITIONS: test concentration of 10 μM; read-out: 5-HT (inhibition of reuptake of serotonin, % inhibition)
PARAMETER: inhibition at 10 µM (%)
I only need the number, in %, no unit after it.

// query inhibition at 10 µM value for entry CCN(CCOCC(=O)NCC1CCC(C(c2cccc(F)c2)N(C)C)CC1)S(=O)(=O)c1c(C)cc(OC)c(C)c1C (stereo not shown)
94

Now try CN(C)C(c1cccs1)C1CCC(CNC(=O)COCCN(Cc2ccccc2)S(=O)(=O)c2ccccc2)CC1 (stereo not shown) .
92

Now try COc1ccc(S(=O)(=O)N2Cc3ccccc3CC2COCC(=O)NCC2CCC(C(c3cccc(F)c3)N(C)C)CC2)cc1 (stereo not shown) .
96

Now try CN(C)C(c1cccs1)C1CCC(CNC(=O)COCCN(C)S(=O)(=O)c2ccc(Cl)cc2)CC1 (stereo not shown) .
92

---

Kindly state B1R Ant. r [10 μM] % Inhibition for each of the entries shown.
ASSAYED TARGET: bradykinin 1 receptor (B1R) of the rat (Rattus norvegicus, UniProt P97583)
Construct: expressed in transfected cells; host or cells: CHO K1 cells
Sequence (P97583 whole entry): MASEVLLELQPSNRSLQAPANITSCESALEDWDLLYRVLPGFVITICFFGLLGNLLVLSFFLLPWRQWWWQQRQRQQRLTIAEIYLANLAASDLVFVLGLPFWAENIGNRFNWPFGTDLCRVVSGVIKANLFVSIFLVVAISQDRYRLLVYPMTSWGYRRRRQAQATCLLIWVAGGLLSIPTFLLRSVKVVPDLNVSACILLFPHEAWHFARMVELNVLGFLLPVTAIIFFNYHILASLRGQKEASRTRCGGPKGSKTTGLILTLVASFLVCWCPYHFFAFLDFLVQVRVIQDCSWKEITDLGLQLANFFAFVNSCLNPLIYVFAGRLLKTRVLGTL
TEST DETAILS: Functional investigation on the rat bradykinin 1 receptor (B1R), Ca2+ FLIPR assay in CHO K1 rB1R cells
Format: cell-based
ASSAY CONDITIONS: B1R antagonism rat; test substance 10 μM; Ca2+ FLIPR, CHO K1 rB1R cells
From the text: Functional Investigation on the Human Bradykinin 1 Receptor (B1R) The agonistic or antagonistic action of substances can be determined on the bradykinin 1 receptor (B1R) of the human species and rats with the following assay. In accordance with this assay, the Ca^2+ inflow through the channel is quantified with the aid of a Ca^2=-sensitive dyestuff (type Fluo-4, Molecular Probes Europe BV, Leiden, Holland) in a fluorescent imaging plate reader (FLIPR, Molecular Devices, Sunnyvale, USA). […]
I only need the number, in %, no unit after it.

Item: CN(C)C(c1cccc(F)c1)C1CCC(CNC(=O)COCCC2CCN(S(=O)(=O)c3ccccc3)CC2)CC1 (centres unmarked) [Example 333] Test system: bradykinin 1 receptor (B1R) of the rat (Rattus norvegicus, UniProt P97583) Read-out: B1R Ant. r [10 μM] % Inhibition Value: ?
15

Now try COc1ccc(S(=O)(=O)N2Cc3ccccc3CC2COCC(=O)NCC2CCC(C(c3ccc(F)cc3)N(C)C)CC2)cc1 (centres unmarked) [Example 288] .
20

Now try CN(C)C(CCc1ccccc1)C1CCC(CNC(=O)COC2CCCCC2N(C)S(=O)(=O)c2ccc(Cl)c(Cl)c2)CC1 (centres unmarked) [Example 451] .
11

Now try CN(C)C(CCc1ccccc1)C1CCC(CNC(=O)COCC2CCCN2S(=O)(=O)c2ccc(Cl)c(Cl)c2)CC1 (centres unmarked) [Example 415] .
39

Now try CN(C)C(c1cccc(F)c1)C1CCC(CNC(=O)COC2CCN(S(=O)(=O)c3ccc(Cl)cc3)C2)CC1 (centres unmarked) [Example 258] .
12

Now try Cc1ccc(S(=O)(=O)N2CCC(OCC(=O)NCCC3CCC(C(c4ccc(Cl)cc4)N(C)C)CC3)C2)cc1 (centres unmarked) [Example 305] .
29

Now try COc1cc(C)c(S(=O)(=O)N(C)CCOCC(=O)NC2CCC(C(c3ccccc3)N(C)C)CC2)c(C)c1C (centres unmarked) [Example 597] .
−22

Now try CN(C)C(c1ccc(F)cc1)C1CCC(CNC(=O)COCCN(Cc2ccccc2)S(=O)(=O)c2ccccc2)CC1 (centres unmarked) [Example 342] .
−20

Now try CN(CCOCC(=O)NC1CCC(C(c2ccccc2)N2CCOCC2)CC1)S(=O)(=O)c1c(Cl)cc(Cl)cc1Cl (centres unmarked) [Example 607] .
3

Now try COc1ccc(S(=O)(=O)N(C)CCOCC(=O)NCC2CCC(C(c3ccc(F)cc3)N(C)C)CC2)cc1OC (centres unmarked) [Example 514] .
22

Now try CN(C)C(CCc1ccccc1)C1CCC(CNC(=O)COCCN(C)S(=O)(=O)c2c(Cl)cccc2Cl)CC1 (centres unmarked) [Example 476] .
74

Now try CN(C)C(CCc1ccccc1)C1CCC(CNC(=O)COC2CCN(S(=O)(=O)c3ccccc3)CC2)CC1 (centres unmarked) [Example 578] .
12

Now try COc1ccc(S(=O)(=O)N2CCCC2COCC(=O)NCC2CCC(C(c3ccc(Cl)cc3)N(C)C)CC2)cc1 (centres unmarked) [Example 351] .
34

Now try CCN(CCOCC(=O)NCCC1CCC(C(c2ccc(F)cc2)N(C)C)CC1)S(=O)(=O)c1c(C)cc(OC)c(C)c1C (centres unmarked) [Example 413] .
83

---

ASSAYED TARGET: bradykinin 1 receptor (B1R) of the rat (Rattus norvegicus)
Construct: expressed in transfected cells; host or cells: CHO K1 cells
TEST DETAILS: Functional investigation on the rat bradykinin 1 receptor (B1R), Ca2+ FLIPR assay in CHO K1 rB1R cells
Type: cell-based
ASSAY CONDITIONS: CHO-K1, read-out: B1R Ant. r [10 μM] % Inhibition
Excerpt: Functional Investigation on the Human Bradykinin 1 Receptor (B1R) The agonistic or antagonistic action of substances can be determined on the bradykinin 1 receptor (B1R) of the human species and rats with the following assay. In accordance with this assay, the Ca^2+ inflow through the channel is quantified with the aid of a Ca^2=-sensitive dyestuff (type Fluo-4, Molecular Probes Europe BV, Leiden, Holland) in a fluorescent imaging plate reader (FLIPR, Molecular Devices, Sunnyvale, USA). […]
Kindly state inhibition at 10 µM for each of the entries shown.
I only need the number, in %, no unit after it.

// query inhibition at 10 µM value for entry CN(C)C(c1ccccc1)C1CCC(CNC(=O)COC2CCN(S(=O)(=O)c3ccccc3)C2)CC1 (stereo not shown)
24

Now try CN(C)C(c1cccs1)C1CCC(NC(=O)COC2CCCN(S(=O)(=O)c3ccccc3)C2)CC1 (stereo not shown) .
-17

Now try CN(C)C(c1ccccc1)C1CCC(NC(=O)CCNC(=O)c2nc(-c3cc(Cl)cc(Cl)c3)no2)CC1 (stereo not shown) .
15

Now try CN(C)C(CCc1ccccc1)C1CCC(NC(=O)CCNC(=O)c2nc(-c3ccc4c(c3)OCO4)no2)CC1 (stereo not shown) .
2

Now try CN(C)C(c1ccccc1)C1CCC(CNC(=O)COC2CCN(S(=O)(=O)c3ccc(Cl)cc3Cl)C2)CC1 (stereo not shown) .
46

Now try CN(C)C(c1cccs1)C1CCC(CNC(=O)COCCN(C)S(=O)(=O)c2ccc(F)cc2)CC1 (stereo not shown) .
-4

Now try CN(C)C(CCc1ccccc1)C1CCC(NC(=O)CNC(=O)c2nc(-c3ccccn3)no2)CC1 (stereo not shown) .
16
